Target: glycine receptor of the NMDA receptor complex (Rattus norvegicus, UniProt P35439)
Construct: Freshly dissected cortices and hippocampi are homogenized in 0.32 M sucrose
Experiment: [3H]-glycine binding assay (Test A)
Conditions: 20 nanomolar [3H]-glycine, rat synaptic membranes, pH 7.1, 30 minutes at 4 °C
# pIC50 values compiled below
# pIC50: negative log10 of molar concentration; output just the value

[
  {
    "compound": "Cc1ccc(-n2nc(O)c3c(c2=O)Cc2ccc(Cl)cc2N3)cc1 [Example 145]",
    "target.entity": "glycine receptor of the NMDA receptor complex (Rattus norvegicus, UniProt P35439)",
    "pIC50": 7.35
  },
  {
    "compound": "COc1ccc(-n2nc(O)c3c(c2=O)Cc2ccc(Cl)cc2N3)cc1 [Example 148]",
    "target.entity": "glycine receptor of the NMDA receptor complex (Rattus norvegicus, UniProt P35439)",
    "pIC50": 6.36
  }
]

Checklist item: pIC50 tested on glycine receptor of the NMDA receptor complex (Rattus norvegicus, UniProt P35439), entry O=c1c2c(c(O)nn1-c1ccccc1)Nc1cc(Cl)ccc1C2 [Example 147] , value?
7.77
